- SUBJECT OF TEST: EP4 receptor (Homo sapiens, UniProt P35408)
- Construct: BT549 breast cancer cells, express high endogenous EP4 levels and very low EP2 levels
- Sequence (P35408 whole entry): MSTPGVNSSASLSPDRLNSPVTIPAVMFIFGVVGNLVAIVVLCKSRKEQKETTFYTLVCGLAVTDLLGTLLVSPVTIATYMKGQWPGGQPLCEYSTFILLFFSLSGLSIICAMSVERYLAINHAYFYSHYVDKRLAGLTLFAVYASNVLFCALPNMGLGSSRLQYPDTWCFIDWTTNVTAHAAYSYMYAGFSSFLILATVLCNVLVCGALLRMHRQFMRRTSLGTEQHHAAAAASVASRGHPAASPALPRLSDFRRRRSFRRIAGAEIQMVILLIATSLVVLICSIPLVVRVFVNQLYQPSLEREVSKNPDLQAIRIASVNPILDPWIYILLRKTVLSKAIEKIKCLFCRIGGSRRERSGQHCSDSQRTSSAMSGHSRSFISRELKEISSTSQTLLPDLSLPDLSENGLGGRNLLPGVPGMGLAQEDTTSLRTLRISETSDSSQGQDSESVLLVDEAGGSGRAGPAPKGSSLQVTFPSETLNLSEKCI
- ASSAY INFO: hEP4 cAMP assay (BT549 breast cancer cells, HTRF cAMP, PGE2 stimulation)
- CONDITION LABEL: antagonistic activity, PGE2 6 nM (EC80)
Reported IC50 values for the following compounds.
The answer is to be given in nM; state only the numeric part.

Observe how each entry below is paired with its result.
In [3]: df
Out[3]:
                            chemical_string  observed_result
0  CSc1cc(-c2cc(NCCc3c(C)sc4c(C)c(F)ccc34)ncn2)ccc1C(=O)O              564
1  Cc1oc2ccccc2c1CCNc1cc(-c2ccc(C(=O)O)c(SC3CCC3)c2)ncn1              795
2  CCOc1cc(-c2cc(NCCc3c(C)sc4c(C)ccc(F)c34)ncn2)sc1C(=O)O                1

*Q* Requested read-out: IC50. Entry: `CCOc1cc(-c2cc(NCCc3c(C)sc4c(C)cc(F)cc34)ncn2)ccc1-c1cc(O)no1`
*A* 297

*Q* Value lookup for IC50; key = `Cc1sc2c(C)cccc2c1CCNc1cc(-c2ccc(C(=O)O)c(SCC(C)C)c2)ncn1`
*A* 1130

---

Listing: IC50 of selected compounds
- SUBJECT OF TEST: EP2 receptor (Homo sapiens, UniProt P43116)
- Construct: SF295 glioblastoma cells express high endogenous EP2 and no EP4
- Sequence (P43116 whole entry): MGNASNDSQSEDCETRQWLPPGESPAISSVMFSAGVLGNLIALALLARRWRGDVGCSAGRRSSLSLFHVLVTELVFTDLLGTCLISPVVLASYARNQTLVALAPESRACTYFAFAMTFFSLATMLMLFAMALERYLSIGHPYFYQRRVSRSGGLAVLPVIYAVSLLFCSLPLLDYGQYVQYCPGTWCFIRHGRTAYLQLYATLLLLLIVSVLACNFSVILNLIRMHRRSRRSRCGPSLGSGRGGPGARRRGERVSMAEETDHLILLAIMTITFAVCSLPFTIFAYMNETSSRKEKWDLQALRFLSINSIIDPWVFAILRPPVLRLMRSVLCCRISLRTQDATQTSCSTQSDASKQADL
- ASSAY INFO: hEP2 cAMP assay (SF295 glioblastoma cells, HTRF cAMP, PGE2 stimulation)
- CONDITION LABEL: antagonistic activity
Express your answer in nM, writing the number without its unit.

Recorded IC50, per entry:
In [3]: df
Out[3]:
                            chemical_string  observed_result
0  CCc1oc2c(C)cc(F)cc2c1CCNc1cc(-c2cc(C)c(C(=O)O)s2)ncn1              198
1  COc1cc(F)c(F)c2c(CCNc3cc(-c4ccc(C(=O)O)c(OC5CC5)c4)ncn3)c(C)oc12               49
2  CCOc1cc(-c2cc(NCCc3c(C)sc4c(OC)ccc(F)c34)ncn2)sc1C(=O)O               11

Next compound, please.
*Q* I'd like to know its IC50. The compound in question is `CCOc1cc(-c2cc(NCCc3c(C)sc4c(C)cccc34)ncn2)ccc1CC(=O)O`
*A* 95

---

- SUBJECT OF TEST: EP4 receptor (Homo sapiens, UniProt P35408)
- Construct: BT549 breast cancer cells, express high endogenous EP4 levels and very low EP2 levels
- ASSAY INFO: hEP4 cAMP assay (BT549 breast cancer cells, HTRF cAMP, PGE2 stimulation)
- CONDITION LABEL: antagonistic activity, PGE2 6 nM (EC80)
READOUT LABEL: log10 of IC50 (log10 of the value in nM)
For clarity, the numbers are log10 values of IC50 expressed in nM.

Below, each entry is followed by its recorded log10 of IC50 result.
In [3]: df
Out[3]:
                            chemical_string  observed_result
0  CCOc1cc(-c2cc(NCCc3c(C)sc4c(C)cc(F)cc34)ncn2)ccc1OCCC(=O)O             2.06
1  COc1ccc(Cl)c2c(CCNc3cc(-c4ccc(C(=O)O)c(OC5CCC5)c4)ncn3)c(C)sc12             2.30
2  Cc1sc2c(C)cc(F)cc2c1CCNc1cc(-c2ccc(C(=O)O)c(OC3CCCC3)c2)ncn1             2.76
3  COc1ccc(Cl)c2c(CCNc3cc(-c4ccc(C(=O)O)c(OC(F)F)c4)ncn3)c(C)sc12             2.35
4  Cc1sc2c(C)cc(F)cc2c1CCNc1cc(-c2cc3ccc(C(=O)O)cc3[nH]2)ncn1             2.49
5  CSc1cc(-c2cc(NCCc3c(C)sc4c(Cl)ccc(Cl)c34)ncn2)ccc1C(=O)O             2.73
6  COc1cc(F)c(F)c2c(CCNc3cc(-c4cc(F)c(C(=O)O)c(OC5CCC5)c4)ncn3)c(C)oc12             2.65
7  CCOc1cc(-c2cc(NCCc3c(CC)oc4c(C)cc(F)cc34)ncn2)sc1C(=O)O             2.05
8  Cc1sc2c(C)cc(F)cc2c1CCNc1cc(-c2ccc(-c3cc(O)no3)cc2)ncn1             2.51
9  Cc1oc2c(Cl)cccc2c1CCNc1cc(-c2ccc(C(=O)O)c(OC3CCC3)c2)ncn1             2.63

*Q* Could you tell me which log10 of IC50 is on file for `CCOc1cc(-c2cc(NCCc3c(C)sc4c(Cl)cc(F)cc34)ncn2)ccc1C(=O)O` ?
*A* 2.75

*Q* Using the record for `COc1cc(Cl)cc2c(CCNc3cc(-c4cc(C)c(C(=O)O)s4)ncn3)c(C)oc12` , report its log10 of IC50.
*A* 1.34

*Q* GET /values?readout=log10 of IC50&item= `CCSc1cc(-c2cc(NCCc3c(C)oc4ccccc34)ncn2)ccc1C(=O)O`
*A* 3.14

*Q* log10 of IC50 for `CCc1nc(-c2cc(NCCc3c(C)sc4c(C)cc(F)cc34)ncn2)sc1-c1noc(=O)[nH]1` ?
*A* 2.63

*Q* Can you look up the measured log10 of IC50 of `Cc1sc2c(C)cc(F)cc2c1CCNc1cc(-c2ccc(C(=O)O)c(OC3CC3)c2)ncn1` for me?
*A* 1.68

*Q* Which log10 of IC50 is reported for this molecule? `Cc1sc2c(C)cc(F)cc2c1CCNc1cc(-c2cc3c(C(=O)O)cccc3[nH]2)ncn1`
*A* 2.14

---

- SUBJECT OF TEST: PTGER2 (EP2) (Homo sapiens)
- ASSAY INFO: hEP2 b-arrestin assay (PathHunter HEK 293 PTGER2 b-arrestin cells)
- CONDITION LABEL: antagonistic activity, beta-arrestin assay; read-out: hEP2 b-arr IC50
READOUT LABEL: IC50 (nM)
Only the number, expressed in nM, is required.

>>> df
                            chemical_string  unit_abbrev  observed_result
0  CCOc1cc(-c2cc(NCCc3c(C)sc4c(OC)ccc(Cl)c34)ncn2)sc1C(=O)O           nM               10
1  CSc1cc(-c2cc(NCCc3c(C)sc4c(C)cccc34)ncn2)cc(Cl)c1C(=O)O           nM               18
2  COc1cc(-c2cc(NCCc3c(C)sc4c(C)cc(F)cc34)ncn2)ccc1-c1cc(O)no1           nM               16
3  Cc1sc2c(C)cccc2c1CCNc1cc(-c2ccc3c(C(=O)O)coc3c2)ncn1           nM               10

*Q* Requested field: IC50. Item: `CCOc1cc(-c2cc(NCCc3c(C#N)sc4c(OC)cccc34)ncn2)ccc1C(=O)O`
*A* 194

*Q* Fill blank: measured IC50 of the compound `CCOc1cc(-c2cc(NCCc3c(C)sc4c(C)cc(F)cc34)ncn2)sc1C(=O)O` is ____.
*A* 2

*Q* Query (compound): `CCc1cc(-c2cc(NCCc3c(C)sc4c(C)cc(F)cc34)ncn2)ccc1C(=O)OC` ; field requested: IC50
*A* 126

*Q* Any idea what IC50 was measured for `CCOc1cc(-c2cc(NCCc3c(C)oc4ccccc34)ncn2)ccc1C(=O)O` ?
*A* 5

---

- SUBJECT OF TEST: PTGER4 (EP4) (Homo sapiens, UniProt P35408)
- Sequence (P35408 whole entry): as the sequence (P35408 whole entry) above
- ASSAY INFO: hEP4 b-arrestin assay (PathHunter HEK 293 PTGER4 b-arrestin cells)
- CONDITION LABEL: antagonistic activity, beta-arrestin assay; read-out: hEP4 b-arr IC50
- Experimental: The antagonistic activities of the compounds of formula (I) on the EP2 and EP4 receptors are determined in accordance with the following experimental method. […] PathHunter Glo Detection Kit components are thawed and mix according to manufacturer's instructions: 1 part Galacton Star Substrate with 5 parts Emerald II™ Solution, and 19 parts of PathHunter Cell Assay Buffer, respectively. […] Luminescence counts are read on a BMG Fluostar Optima reader according to manufacturer's instructions. […]
Measured IC50 values are reported for all entries that follow.
Please make sure the unit comes right after the number.

>>> print(df.to_string())
                            chemical_string                           subject_of_test  readout_label  observed_result
0  Cc1sc2c(C)ccc(F)c2c1CCNc1cc(-c2cc(F)c(C(=O)O)c(OC3CCC3)c2)ncn1  PTGER4 (EP4) (Homo sapiens, UniProt P35408)           IC50            43 nM

*Q* Which IC50 value belongs to `Cc1sc2c(C)cc(F)cc2c1CCNc1cc(-c2cc3c(C(=O)O)cccc3[nH]2)ncn1` ?
*A* 155 nM

*Q* What IC50 value was documented for this molecule, `CCOc1cc(-c2cc(NCCc3c(C)sc4c(Cl)ccc(Cl)c34)ncn2)ccc1CC(=O)O` ?
*A* 246 nM

*Q* Field request: IC50 | item: `CCOc1cc(-c2cc(NCCc3c(C)sc4c(C)ccc(F)c34)ncn2)ccc1OCC(=O)O`
*A* 29 nM

*Q* Can you share its IC50? I mean this molecule: `CCOc1cc(-c2cc(NCCc3c(C)sc4c(C)cc(F)cc34)ncn2)ccc1CC(=O)O`
*A* 403 nM

*Q* May I ask what IC50 has been recorded for `CCOc1cc(-c2cc(NCCc3c(C)oc4c(Cl)cccc34)ncn2)ccc1C(=O)O` ?
*A* 659 nM

*Q* Look up IC50: `CCOc1cc(-c2cc(NCCc3c(C)sc4c(OC)ccc(F)c34)ncn2)ccc1CC(=O)O`
*A* 58 nM

*Q* Which value of IC50 has been reported for `COc1cc(-c2cc(NCCc3c(C)sc4c(C)cc(F)cc34)ncn2)ccc1CCC(=O)O` in the records?
*A* 487 nM

*Q* Item under review: `CCOc1cc(-c2cc(NCCc3c(C)oc4c(OC)cc(Cl)cc34)ncn2)ccc1C(=O)O` . Reported IC50?
*A* 394 nM

*Q* Sample `CCOc1cc(-c2cc(NCCc3c(C)oc4c(C)cc(F)cc34)ncn2)ccc1C(=O)O` — what was its IC50?
*A* 668 nM

*Q* What value of measured IC50 is listed for `Cc1sc2c(C)cc(F)cc2c1CCNc1cc(-c2ccc(C(N)=O)cc2)ncn1` ?
*A* 331 nM
